# Experiment summary: in vivo
# Experimental setup: sheep, iv, 0.015 mg/kg, morphine-6-glucuronide concentration (plasma)
Endpoint: concentration at 4 h

Which value of concentration at 4 h has been reported for CN1CC[C@]23c4c5ccc(O)c4O[C@H]2[C@@H](O[C@@H]2O[C@H](C(=O)O)[C@@H](O)[C@H](O)[C@H]2O)C=C[C@H]3[C@H]1C5 [morphine-6-glucuronide] in the records?
< 1 ng/mL

* * *

# Experiment summary: Pharmacokinetic parameters after intravenous administration to sheep
# Experimental setup: sheep, plasma, iv, 0.015 mg/kg, Clearance, i.v. 0.015 mg/kg; mean of 3 sheep
Endpoint: clearance (mL/min/kg)
Number only, in mL/min/kg; omit the unit.

Which measured clearance value corresponds to CN1CC[C@]23c4c5ccc(O)c4O[C@H]2[C@@H](O[C@@H]2O[C@H](C(=O)O)[C@@H](O)[C@H](O)[C@H]2O)C=C[C@H]3[C@H]1C5 [morphine-6-glucuronide] ?
5.6

* * *

# Experiment summary: in vivo
# Experimental setup: sheep, iv, 0.015 mg/kg, morphine-6-glucuronide concentration (plasma)
Endpoint: concentration at 6 h

Would you mind telling me what concentration at 6 h value was observed for CN1CC[C@]23c4c5ccc(O)c4O[C@H]2[C@@H](O[C@@H]2O[C@H](C(=O)O)[C@@H](O)[C@H](O)[C@H]2O)C=C[C@H]3[C@H]1C5 [morphine-6-glucuronide] ?
< 1 ng/mL

* * *

# Experiment summary: Pharmacokinetic parameters after nasal administration to sheep
# Experimental setup: sheep, plasma, 0.15 mg/kg, Cmax, nasal 0.15 mg/kg with 0.5% chitosan; individual sheep IF, JF, KF
# Procedure: The chitosan concentration was 0.5%. The solution was administered into the sheep nostril using a simple spray pump device followed by serial blood sampling. […] Control experiments were conducted using i.v. dosage of the glucuronide. […] The area under the curve (AUC) was calculated over 0-300 minutes using the linear trapezoidal method. […] Clearance was calculated by dividing the dose by the AUC, and the volume of distribution was calculated by dividing the clearance by the elimination rate constant. […]
Endpoint: Cmax

I would be grateful if you could share the reported Cmax for CN1CC[C@]23c4c5ccc(O)c4O[C@H]2[C@@H](O[C@@H]2O[C@H](C(=O)O)[C@@H](O)[C@H](O)[C@H]2O)C=C[C@H]3[C@H]1C5 [morphine-6-glucuronide] .
121 ng/mL

* * *

# Experiment summary: in vivo
# Experimental setup: sheep, 0.15 mg/kg, morphine-6-glucuronide concentration (plasma)
Endpoint: concentration at 3 h (ng/mL)
// units = ng/mL; emit number, no label

Need concentration at 3 h, item CN1CC[C@]23c4c5ccc(O)c4O[C@H]2[C@@H](O[C@@H]2O[C@H](C(=O)O)[C@@H](O)[C@H](O)[C@H]2O)C=C[C@H]3[C@H]1C5 [morphine-6-glucuronide]
10.2

* * *

# Experiment summary: in vivo
# Experimental setup: sheep, iv, 0.015 mg/kg, morphine-6-glucuronide concentration (plasma)
# Experimental: The chitosan concentration was 0.5%. The solution was administered into the sheep nostril using a simple spray pump device followed by serial blood sampling. […] Control experiments were conducted using i.v. dosage of the glucuronide. Blood samples (10 ml) were taken at the following times. […] Biomed. […] The limit of quantification of the method is 1 ng/ml for a 0.5 ml plasma sample and the assay is linear over the range of 1 to 1200 ng/ml drug concentration.
Endpoint: concentration at 2 min (ng/mL)
Numbers only; they are read as ng/mL.

Look at this compound and give its reported concentration at 2 min. CN1CC[C@]23c4c5ccc(O)c4O[C@H]2[C@@H](O[C@@H]2O[C@H](C(=O)O)[C@@H](O)[C@H](O)[C@H]2O)C=C[C@H]3[C@H]1C5 [morphine-6-glucuronide]
43.8
